Test system: Plasmodium berghei
Experiment: Luciferase/luciferin-expressing antifolate-resistant parasites were used to infect a culture of HepG2 cells that were pre-incubated with compounds. Infected hepatocytes emit light due to the luciferase reaction. Assay results are presented as the percent inhibition of light emission compared to control. […]
Assay type: functional
Conditions: sporozoite, PBLUC_HILL_SLOPE 15.2, PBLUC_R_SQUARED 0.0748, read-out: LUCIFERASE INFECTION ASSAY - IC50
pIC50: −log10 of the molar value.
parameter: pIC50

entry_smiles=O=C(Nc1nc(-c2ccccn2)cs1)c1ccc(=O)n(Cc2ccccc2)n1 result_value=5.06

* * *

Test system: Plasmodium berghei
Assay: Luciferase/luciferin-expressing antifolate-resistant parasites were used to infect a culture of HepG2 cells that were pre-incubated with compounds. Infected hepatocytes emit light due to the luciferase reaction. Assay results are presented as the percent inhibition of light emission compared to control. […]
Assay type: functional
Settings: sporozoite, FFLUC_HILL_SLOPE 15.9, FFLUC_R_SQUARED 0.234, read-out: LUCIFERASE INFECTION ASSAY - IC50
parameter: IC50

entry_smiles=Cc1cc(C)cc(NC(=O)CCN2c3ccccc3Sc3ccccc32)c1 tested_system="Plasmodium berghei" result_value="> 10 µM"

* * *

Measured pIC50 of individual entries
Tested on: Plasmodium berghei
Test: Luciferase/luciferin-expressing antifolate-resistant parasites were used to infect a culture of HepG2 cells that were pre-incubated with compounds. Infected hepatocytes emit light due to the luciferase reaction. Assay results are presented as the percent inhibition of light emission compared to control. […]
Format: functional
Conditions: sporozoite, read-out: LUCIFERASE INFECTION ASSAY - IC50
pIC50: −log10 of the molar value.
parameter: pIC50

compound=CN(CCCN1C(=O)c2ccccc2C1=O)CC(=O)N(C)C parameter=pIC50 result_value="< 5.00"
compound=Cc1cc(C)c(CSC2=NCCCN2C2CCCCC2)c(C)c1 parameter=pIC50 result_value="< 5.05"
compound=COc1cccc(CNC(=S)SCC(=O)C(C)(C)C)c1 parameter=pIC50 result_value="< 4.97"
compound=CC(C)(C)C(=O)ONC(N)=CS(=O)(=O)c1ccc(Cl)cc1 parameter=pIC50 result_value="< 5.00"
compound=O=C(c1cnc2cc3c(cc2c1)OCCCO3)c1cc(F)ccc1O parameter=pIC50 result_value=5.51
compound=O=C(Nc1nc2ccccn2c1C(=O)NC1CCCCC1)c1c(F)ccc(F)c1F parameter=pIC50 result_value="< 5.10"
compound=COc1ccccc1-c1cc(-c2cccc(OC(F)(F)F)c2)cnc1N parameter=pIC50 result_value="< 5.04"
compound=O=C(Nc1nnc[nH]1)C1(c2ccc(F)cc2)CC1 parameter=pIC50 result_value="< 5.00"
compound=O=[N+]([O-])c1cc(Cl)ccc1Oc1c(Cl)cccc1Cl parameter=pIC50 result_value="< 4.98"
compound="NC(c1ccccc1)c1csc(NC(=O)NC(c2ccccc2)c2ccccc2)n1 (stereo unspecified)" parameter=pIC50 result_value="< 5.10"
compound=CC(C)(C)NC(=S)N/N=C/c1c(O)ccc2ccccc12 parameter=pIC50 result_value=5.53

* * *

Tested on: Plasmodium berghei
Assay: Luciferase/luciferin-expressing antifolate-resistant parasites were used to infect a culture of HepG2 cells that were pre-incubated with compounds. Infected hepatocytes emit light due to the luciferase reaction. Assay results are presented as the percent inhibition of light emission compared to control. […]
Format: functional
Conditions: sporozoite, HEPG2TOX_HILL_SLOPE 11.3, HEPG2TOX_R_SQUARED 0.976, PBLUC_HILL_SLOPE 2.77, PBLUC_R_SQUARED 0.661, read-out: LUCIFERASE INFECTION ASSAY - IC50
pIC50: −log10 of the molar value.
parameter: pIC50

entry_smiles=CC(=O)Oc1ccc(-c2ccc(C(=O)OCC(=O)Nc3sccc3C(N)=O)cc2)cc1 tested_system="Plasmodium berghei" result_value=5.30
